- Target under test: tyrosine kinase of 72 kDa (Rattus norvegicus)
- Construct: endogenous in cells; host or cells: RBL-2H3 cells
- Sequence (Q64725 whole entry): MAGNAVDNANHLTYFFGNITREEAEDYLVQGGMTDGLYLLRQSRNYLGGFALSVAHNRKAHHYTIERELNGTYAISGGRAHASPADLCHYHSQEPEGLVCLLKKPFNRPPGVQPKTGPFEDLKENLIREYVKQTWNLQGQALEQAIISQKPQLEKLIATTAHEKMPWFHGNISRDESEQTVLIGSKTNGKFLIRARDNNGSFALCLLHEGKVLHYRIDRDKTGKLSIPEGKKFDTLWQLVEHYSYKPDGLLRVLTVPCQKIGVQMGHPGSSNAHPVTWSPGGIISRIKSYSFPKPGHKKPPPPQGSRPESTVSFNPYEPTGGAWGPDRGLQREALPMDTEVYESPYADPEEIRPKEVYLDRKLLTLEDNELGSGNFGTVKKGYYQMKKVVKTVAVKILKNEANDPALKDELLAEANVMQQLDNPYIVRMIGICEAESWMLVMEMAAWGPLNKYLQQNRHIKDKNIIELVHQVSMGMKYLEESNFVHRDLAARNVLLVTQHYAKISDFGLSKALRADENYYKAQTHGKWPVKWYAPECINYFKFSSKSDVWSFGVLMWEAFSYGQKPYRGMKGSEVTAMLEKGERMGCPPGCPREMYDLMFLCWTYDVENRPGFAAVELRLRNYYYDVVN
- Experiment notes: Inhibition of activation (phosphorylation) of tyrosine kinase of 72 kDa due to antigenic stimulation in RBL-2H3 cells
- Type: cell-based
- Test parameters: Conc. of Compd. 30 μM
Assign Inhibitory Strength (%) to each entry below.
Numbers only, in %.

{"Molecule": "Cc1ccc2c(c1C)N(CCCNCc1ccccc1)c1cccc(CC(=O)O)c1[S+]2[O-] (stereo not drawn)", "Inhibitory Strength (%)": 100}
{"Molecule": "Cc1ccc2c(c1C)N(CCCNc1ccccc1)c1ccccc1[S+]2[O-] (stereo not drawn)", "Inhibitory Strength (%)": 100}
{"Molecule": "Cc1ccc2c(c1C)N(CCCN(CCO)Cc1ccccc1)c1ccccc1S2(=O)=O", "Inhibitory Strength (%)": 80}
{"Molecule": "Cc1ccc2c(c1C)N(CCCN)c1ccccc1S2(=O)=O", "Inhibitory Strength (%)": 30}

Please examine the following record next.
Q: Quick one: Inhibitory Strength (%) for `Cc1ccc2c(c1C)N(CCCNCc1ccccc1)c1ccccc1S2(=O)=O` ?
Result: 70

Where do these numbers come from? They come from patent US6703388B2.
